- Assay Details: qHTS assay to identify small molecule agonists of the peroxisome proliferator-activated receptor delta (PPARd) signaling pathway - cell viability counter screen (AID 743211); note: nearly all actives have a fitted effect of over 55% in size
- Condition Info: PPARd-bla HEK293H viability, CellTiter-Glo luminescence, 17 h; series mostly up to 62.6 µM
Results filed as inconclusive are left out. The source made the active and inactive calls. Calls come from the whole dose curve; as a rule, active = well fitted cell-killing curve with a large enough effect in the repeat runs; inconclusive = weak or mixed curves; inactive = no such curve, though single readings can be large or run the other way.
Form entry, call: pick from active, inactive

Please let me know the test result on file for "CC(C)(c1ccccc1)c1ccc(O)cc1" . active

Please let me know the test result on file for "CCCCOCCOC(C)=O" . inactive

Please let me know the test result on file for "NC(=O)CN1CCCC1=O" . inactive

###

- Measurement Target: Nuclear receptor ROR-gamma (Homo sapiens)
- Assay Details: qHTS assay to identify small molecule antagonists of the retinoid-related orphan receptor gamma (ROR-gamma) signaling pathway (AID 1159521; note: nearly all actives have a fitted effect of over 50% in size)
- Condition Info: Tet-on RORgamma CHO cells, RORE-luciferase, 16 h; series mostly up to 92.4 µM
Records with an inconclusive call do not appear. Active and inactive are the calls of the source. Calls come from the whole dose curve; as a rule, active = well fitted inhibition curve with a large enough effect in the repeat runs; inconclusive = weak or mixed curves, or effect the other way; inactive = no such curve, though single readings can be large or run the other way.
Form entry, call: pick from 1.0 = active, 0.0 = inactive

Please let me know the test result on file for "CC(C)(c1ccccc1)c1ccc(O)cc1" . 1.0

Please let me know the test result on file for "O=NN(c1ccccc1)c1ccccc1" . 0.0

Please let me know the test result on file for "S=c1[nH]c2ccccc2[nH]1" . 0.0

Please let me know the test result on file for "CC[n+]1c(-c2ccccc2)c2cc(N)ccc2c2ccc(N)cc21" . 0.0

Please let me know the test result on file for "Clc1cccc(C(Cl)(Cl)Cl)n1" . 0.0

Please let me know the test result on file for "CCOP(=O)(OCC)OCC" . 0.0

Please let me know the test result on file for "CC(C)(C#N)N=NC(C)(C)C#N" . 0.0

Please let me know the test result on file for "CSc1nc(NC(C)C)nc(NC(C)C)n1" . 0.0

Please let me know the test result on file for "CC1=C(C(=O)Nc2ccccc2)SCCO1" . 0.0

Please let me know the test result on file for "O=S(=O)(O)C(F)(F)C(F)(F)C(F)(F)C(F)(F)C(F)(F)C(F)(F)C(F)(F)C(F)(F)F" . 0.0

Please let me know the test result on file for "CN(C)c1nc(=O)n(C2CCCCC2)c(=O)n1C" . 0.0

Please let me know the test result on file for CC(C)=CC1C(C(=O)OCc2cccc(Oc3ccccc3)c2)C1(C)C (stereo not given) . 0.0

Please let me know the test result on file for COP(=O)(NC(C)=O)SC (stereo not given) . 0.0

Please let me know the test result on file for "CNC(=S)S" . 0.0

Please let me know the test result on file for "Nc1ccc2ccccc2c1" . 0.0

Please let me know the test result on file for c1ccc(C2CO2)cc1 (stereo not given) . 0.0

Please let me know the test result on file for "CCCCOCCOC(C)=O" . 0.0

Please let me know the test result on file for "CS(=O)(=O)NC(=O)c1cc(Oc2ccc(C(F)(F)F)cc2Cl)ccc1[N+](=O)[O-]" . 0.0

Please let me know the test result on file for "Clc1cccc(Cl)c1" . 1.0

Please let me know the test result on file for "Clc1ccc(C(Cl)(Cl)Cl)cc1" . 0.0

Please let me know the test result on file for "ClC(Cl)=C(Cl)C(Cl)=C(Cl)Cl" . 0.0

Please let me know the test result on file for "ClC(Cl)(Cl)c1ccccc1" . 0.0

Please let me know the test result on file for "ClCC(Cl)CCl" . 0.0

Please let me know the test result on file for "CCOS(=O)(=O)OCC" . 0.0

Please let me know the test result on file for "c1ccc2c(c1)Nc1ccccc1S2" . 0.0

###

- Assay Details: qHTS RealTime-Glo MT Cell Viability Assay in HEK293 cells - 16 hour (AID 1224872); note: nearly all actives have a fitted effect of over 50% in size
- Condition Info: RealTime-Glo luminescence; series mostly up to 76.8 µM
Results filed as inconclusive are left out. Calls of active or inactive are those of the source. The call rests on the fitted dose curve; in most records, active means well fitted cell-killing curve with a large enough effect in the repeat runs; inconclusive means weak or mixed curves, or effect the other way; inactive means flat fitted curve, though single readings scatter.
Form entry, call: pick from class 1 = active, class 0 = inactive

Please let me know the test result on file for "O=[N+]([O-])c1ccc(Nc2ccccc2)cc1" . class 1

Please let me know the test result on file for "CCC/C=N/O" . class 0

Please let me know the test result on file for "CN(C)P(=O)(N(C)C)N(C)C" . class 0

Please let me know the test result on file for "CCOP(=O)(OCC)OCC" . class 0

Please let me know the test result on file for "CN(C)c1nc(=O)n(C2CCCCC2)c(=O)n1C" . class 0

Please let me know the test result on file for "ClCC(Cl)CCl" . class 0

Please let me know the test result on file for "CS(=O)(=O)NC(=O)c1cc(Oc2ccc(C(F)(F)F)cc2Cl)ccc1[N+](=O)[O-]" . class 0

Please let me know the test result on file for "CCOS(=O)(=O)OCC" . class 0

Please let me know the test result on file for "OCCOCCO" . class 0

Please let me know the test result on file for "CC(C)CON=O" . class 0

Please let me know the test result on file for CC(O)CN(CC(C)O)CC(C)O (centres undefined) . class 0

Please let me know the test result on file for "O=C(O)c1nn(Cc2ccc(Cl)cc2Cl)c2ccccc12" . class 0

Please let me know the test result on file for c1ccc(C2CO2)cc1 (centres undefined) . class 0

Please let me know the test result on file for "O=[N+]([O-])/N=C1\NCCN1Cc1ccc(Cl)nc1" . class 0

Please let me know the test result on file for CCCCC(C#N)(Cn1cncn1)c1ccc(Cl)cc1 (centres undefined) . class 0

Please let me know the test result on file for "C[N+](C)(C)C" . class 0

Please let me know the test result on file for "Cc1cc(Cl)ccc1N=CN(C)C" . class 0

Please let me know the test result on file for "C[N+](C)(C)CC(=O)[O-]" . class 0

Please let me know the test result on file for "Clc1cccc(Cl)c1" . class 0

###

- Measurement Target: Peroxisome proliferator-activated receptor gamma (Homo sapiens) (UniProt P37231)
- Sequence (P37231 whole entry, looked up): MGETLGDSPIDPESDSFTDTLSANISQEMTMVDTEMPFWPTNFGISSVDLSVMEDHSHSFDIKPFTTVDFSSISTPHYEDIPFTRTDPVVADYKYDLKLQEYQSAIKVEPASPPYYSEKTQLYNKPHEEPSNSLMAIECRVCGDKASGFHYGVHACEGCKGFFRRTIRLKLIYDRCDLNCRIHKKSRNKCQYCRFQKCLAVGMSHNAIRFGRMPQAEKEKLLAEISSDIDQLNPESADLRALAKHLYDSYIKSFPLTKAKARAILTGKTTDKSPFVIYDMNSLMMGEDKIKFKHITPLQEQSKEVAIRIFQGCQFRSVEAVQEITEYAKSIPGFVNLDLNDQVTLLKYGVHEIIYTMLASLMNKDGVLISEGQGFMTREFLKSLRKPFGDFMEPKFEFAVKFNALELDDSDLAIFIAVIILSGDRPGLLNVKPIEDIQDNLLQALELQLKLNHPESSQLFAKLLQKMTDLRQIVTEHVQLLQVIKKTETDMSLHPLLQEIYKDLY
- Assay Details: qHTS assay to identify small molecule antagonists of the peroxisome proliferator-activated receptor gamma (PPARg) signaling pathway (AID 743191); note: nearly all actives have a fitted effect of over 30% in size
- Condition Info: HEK293H PPARg-UAS-bla, beta-lactamase ratio, antagonist, 17 h; series mostly up to 62.6 µM
Records with an inconclusive call do not appear. Activity calls are given as the source filed them. Calls follow the shape of the full dose curve.
Form entry, call: pick from T (active), F (inactive)

Please let me know the test result on file for c1ccc(C2CO2)cc1 (stereo not drawn) . F

Please let me know the test result on file for CCC1(c2ccc(N)cc2)CCC(=O)NC1=O (stereo not drawn) . F

Please let me know the test result on file for C=CC(Cl)CCl (stereo not drawn) . F

Please let me know the test result on file for "Cn1c(-c2ccccc2)cc(-c2ccccc2)[n+]1C" . F

Please let me know the test result on file for "CC(C)(C#N)N=NC(C)(C)C#N" . F

Please let me know the test result on file for "NC(=O)CN1CCCC1=O" . F

Please let me know the test result on file for "O=C1CCCO1" . F

Please let me know the test result on file for "COP(=S)(OC)SCn1nnc2ccccc2c1=O" . T

Please let me know the test result on file for "CCOP(=O)(OCC)OCC" . F

Please let me know the test result on file for "ClCc1ccccn1" . F

Please let me know the test result on file for "CCNc1nc(Cl)nc(NC(C)(C)C#N)n1" . F

Please let me know the test result on file for "COc1ccc(C=O)cc1OC" . F

Please let me know the test result on file for "CNC(=S)S" . F

Please let me know the test result on file for "CCOP(=S)(OCC)OP(=S)(OCC)OCC" . F

Please let me know the test result on file for "[CH3][Sn]([Cl])([Cl])[Cl]" . F

Please let me know the test result on file for "Cc1ccc(N=CN(C)C=Nc2ccc(C)cc2C)c(C)c1" . F

Please let me know the test result on file for "CCCCOC(=O)COC(=O)c1ccccc1C(=O)OCCCC" . F

Please let me know the test result on file for "Clc1cccc(C(Cl)(Cl)Cl)n1" . F

###

- Measurement Target: Vitamin D3 receptor (Homo sapiens)
- Assay Details: qHTS assay to identify small molecule antagonists of the vitamin D receptor (VDR) signaling pathway (AID 743223)
- Condition Info: VDR-UAS-bla HEK293T, beta-lactamase FRET ratio, 16 h; series mostly up to 61 µM
Inconclusive results are not listed. Activity calls are given as the source filed them. Calls follow the shape of the dose curve; as a rule, active = well fitted inhibition curve with a large enough effect in the signal ratio in the repeat runs (not every such curve was filed as active); inconclusive = weak or mixed curves, or effect the other way; inactive = no such curve, though single readings can be large or run the other way; the % refers to the signal ratio.
Form entry, call: pick from active, inactive

Please let me know the test result on file for "Cn1c(-c2ccccc2)cc(-c2ccccc2)[n+]1C" . inactive

Please let me know the test result on file for "CC[n+]1c(-c2ccccc2)c2cc(N)ccc2c2ccc(N)cc21" . active

Please let me know the test result on file for "ClCc1ccccn1" . inactive

Please let me know the test result on file for "CCCCCCCCCCCCCl" . inactive

Please let me know the test result on file for "Nc1ccc([N+](=O)[O-])cc1N" . inactive

Please let me know the test result on file for c1ccc(C2CO2)cc1 (stereo not drawn) . inactive

Please let me know the test result on file for "CNC(=S)S" . inactive

Please let me know the test result on file for "CN(C)P(=O)(N(C)C)N(C)C" . inactive

Please let me know the test result on file for "OCCOCCO" . inactive

Please let me know the test result on file for CC1CC(=O)O1 (stereo not drawn) . inactive

Please let me know the test result on file for "CC1(C)Cc2cccc(O)c2O1" . inactive

Please let me know the test result on file for "CC(C)(O)C#N" . inactive

Please let me know the test result on file for "CC(C)(c1ccccc1)c1ccc(O)c(C(C)(C)c2ccccc2)c1" . active

Please let me know the test result on file for "O=C1CCCO1" . inactive

Please let me know the test result on file for CC(C)=CC1C(C(=O)OCc2cccc(Oc3ccccc3)c2)C1(C)C (stereo not drawn) . inactive

Please let me know the test result on file for "Clc1ccccc1-c1nnc(-c2ccccc2Cl)nn1" . inactive

Please let me know the test result on file for "C[C@]12CC[C@H]3[C@@H](CCC4=CC(=O)CC[C@@H]43)[C@@H]1CC[C@@H]2O" . inactive

Please let me know the test result on file for "C=C(C)C#N" . inactive

Please let me know the test result on file for "ClC(Cl)(Cl)c1ccccc1" . inactive

Please let me know the test result on file for OC(c1ccc(Cl)cc1)(c1cncnc1)c1ccccc1Cl (stereo not drawn) . inactive

Please let me know the test result on file for "CNC(=O)Oc1cccc2c1OC(C)(C)C2" . inactive

Please let me know the test result on file for "Nc1ccc2ccccc2c1" . inactive

Please let me know the test result on file for "C[N+](C)(C)C" . inactive

Reference source for all entries: PubChem BioAssay (Tox21)
